- EXPERIMENT: Half life of compound after intravenous administration at dose of 0.2 mg/kg in male wistar rats was determined
- Assay type: ADME, organism-based
- Set-up: dose 0.2 mg/kg, route intravenous
- CONDITIONS USED: rat, in vivo
QUANTITY: half-life (h)
Your answer is read as h, so omit the unit and give the number.

# input molecule: COC[C@@H](NC(=O)c1ccc(Cl)s1)C(=O)Nc1ccc(N2CCOCC2=O)c(C)c1 ; wanted: its half-life
1.1

###

- EXPERIMENT: Clearance of compound after intravenous administration at dose of 0.15 mg/kg in female dogs was determined
- CONDITIONS USED: dog, in vivo
QUANTITY: clearance (mL/min/kg)
Please state the figure in mL/min/kg; there is no need to write the unit.

Tell me the measured clearance of COC[C@@H](NC(=O)c1ccc(Cl)s1)C(=O)Nc1ccc(N2CCOCC2=O)c(C)c1 , please.
21.7
